experimental_system: Bile salt export pump (Bsep) (Mus musculus, UniProt Q9QY30)
Sequence (Q9QY30 whole entry): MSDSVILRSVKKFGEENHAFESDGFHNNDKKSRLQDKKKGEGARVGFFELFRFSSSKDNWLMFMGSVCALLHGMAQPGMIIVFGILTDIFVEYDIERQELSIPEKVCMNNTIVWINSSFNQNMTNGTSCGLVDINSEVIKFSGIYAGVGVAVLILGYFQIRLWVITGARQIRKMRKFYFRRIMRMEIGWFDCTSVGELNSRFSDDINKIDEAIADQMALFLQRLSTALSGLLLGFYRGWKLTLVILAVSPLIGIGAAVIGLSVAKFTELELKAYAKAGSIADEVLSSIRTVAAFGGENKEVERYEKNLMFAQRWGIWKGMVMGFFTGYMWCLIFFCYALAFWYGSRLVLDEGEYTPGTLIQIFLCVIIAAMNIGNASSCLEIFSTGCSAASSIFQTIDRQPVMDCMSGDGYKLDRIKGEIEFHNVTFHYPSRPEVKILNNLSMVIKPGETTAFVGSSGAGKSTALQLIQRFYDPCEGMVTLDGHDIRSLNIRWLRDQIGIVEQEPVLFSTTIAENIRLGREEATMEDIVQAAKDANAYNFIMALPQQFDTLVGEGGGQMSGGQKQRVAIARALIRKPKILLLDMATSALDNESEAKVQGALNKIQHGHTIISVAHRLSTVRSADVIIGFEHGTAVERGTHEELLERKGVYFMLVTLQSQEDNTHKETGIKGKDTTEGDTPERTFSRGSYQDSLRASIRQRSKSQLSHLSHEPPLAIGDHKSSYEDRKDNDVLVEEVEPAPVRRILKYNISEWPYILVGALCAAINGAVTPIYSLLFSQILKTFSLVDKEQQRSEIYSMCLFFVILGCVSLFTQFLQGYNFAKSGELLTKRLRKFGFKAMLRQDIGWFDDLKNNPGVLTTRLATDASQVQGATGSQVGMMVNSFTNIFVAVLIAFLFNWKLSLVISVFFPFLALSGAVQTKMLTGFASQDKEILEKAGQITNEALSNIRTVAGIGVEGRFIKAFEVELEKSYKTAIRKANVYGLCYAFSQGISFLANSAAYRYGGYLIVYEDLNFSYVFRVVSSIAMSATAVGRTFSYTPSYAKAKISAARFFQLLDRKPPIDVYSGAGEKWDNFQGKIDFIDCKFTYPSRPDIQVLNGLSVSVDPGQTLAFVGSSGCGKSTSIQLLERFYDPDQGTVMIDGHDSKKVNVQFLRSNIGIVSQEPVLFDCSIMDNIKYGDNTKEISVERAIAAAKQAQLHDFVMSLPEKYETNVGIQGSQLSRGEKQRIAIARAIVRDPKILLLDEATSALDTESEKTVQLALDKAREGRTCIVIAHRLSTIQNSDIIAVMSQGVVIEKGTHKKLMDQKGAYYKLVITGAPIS
method_summary: TP_TRANSPORTER: inhibition of Taurochenodeoxycholate-stimulated ATPase activity (Glibenclamide: 60 uM) in membrane vesicles from Bsep-expressing Sf9 cells
Format: functional, cell membranes, Membrane vesicle
Design: scale not given: the % may be the effect or the level left
assay_conditions: probe Taurochenodeoxycholate, read-out: Activity
assay_readout: activity at 60 µM (%)
Response body: numeric value in %, unit text excluded.

Report measured activity at 60 µM; entry is COc1ccc(Cl)cc1C(=O)NCCc1ccc(S(=O)(=O)NC(=O)NC2CCCCC2)cc1 [GLYBURIDE]
47.2
